# Test system: 422866-222-R5-J1-PDC complex spheroid viability;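 further: spheroids exposed to compounds for one week before readout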
# method: Anticancer human tumor 422866-222-R5-J1-PDC patient-derived pancreatic adenocarcinoma cell line growth inhibition [POLQ]
# measurement parameters: curve of first compound; second compound 1 µM
measurement kind: IC50

Solved cases below.
Nc1ccn(C2OC(CO)C(O)C2(F)F)c(=O)n1 (stereo not drawn) + Cc1cccc(N(C)C(=O)C2C(O)CCN2c2nc(C)cc(C(F)(F)F)c2C#N)c1
119 nM
CCc1c2c(nc3ccc(O)cc13)-c1cc3c(c(=O)n1C2)COC(=O)[C@]3(O)CC + Cc1cccc(N(C)C(=O)C2C(O)CCN2c2nc(C)cc(C(F)(F)F)c2C#N)c1
< 3.16 nM

Looking up C=CC(=O)N1CCN(c2nc(=O)n(-c3c(C)ccnc3C(C)C)c3nc(-c4c(O)cccc4F)c(F)cc23)C(C)C1 (stereo not drawn) + Cc1cccc(N(C)C(=O)C2C(O)CCN2c2nc(C)cc(C(F)(F)F)c2C#N)c1 , I see its IC50 listed as < 31.6 nM

Measured values drawn from PubChem BioAssay AID1963844 for this set.
